Assign pIC50 to each entry below.
Test: Inhibition of bacterial beta-lactamase KPC-2 using nitrocefin as substrate incubated for 20 mins
Design: species or system Bacteria
pIC50 field: float, defined as -log10 of concentration (mol/L).

Q: Name the recorded pIC50 for N#CC[S@@+]([O-])[C@@H]1CC[C@@H]2CN1C(=O)N2O[C@H](F)C(=O)[O-].[Na+] .
A: 7.41

Q: Name the recorded pIC50 for Nc1ncc(C[S@@+]([O-])[C@@H]2CC[C@@H]3CN2C(=O)N3O[C@H](F)C(=O)[O-])s1.[Na+] .
A: 7.06

Q: Name the recorded pIC50 for C[S@@+]([O-])[C@@H]1CC[C@@H]2CN1C(=O)N2OC(F)(F)C(=O)[O-].[Na+] .
A: 8.10

Q: Name the recorded pIC50 for NC(=O)C[S@@+]([O-])[C@@H]1CC[C@@H]2CN1C(=O)N2O[C@H](F)C(=O)[O-].[Na+] .
A: 7.46

Data origin: ChEMBL document CHEMBL5236549
